Target: T1, full-length human SIRPαV1 (NP_542970.1) on cells (human, UniProt P78324 31-504)
T1 construct: one molecule for CHO-K1 and Expi-CHO transfectants (NP_542970.1) and for endogenous V1 on U-937 cells and on CD14+ monocytes of V1/V1 donors; also called CHO-hSIRPαV1; αV1 WT
T1 sequence (P78324 31-504): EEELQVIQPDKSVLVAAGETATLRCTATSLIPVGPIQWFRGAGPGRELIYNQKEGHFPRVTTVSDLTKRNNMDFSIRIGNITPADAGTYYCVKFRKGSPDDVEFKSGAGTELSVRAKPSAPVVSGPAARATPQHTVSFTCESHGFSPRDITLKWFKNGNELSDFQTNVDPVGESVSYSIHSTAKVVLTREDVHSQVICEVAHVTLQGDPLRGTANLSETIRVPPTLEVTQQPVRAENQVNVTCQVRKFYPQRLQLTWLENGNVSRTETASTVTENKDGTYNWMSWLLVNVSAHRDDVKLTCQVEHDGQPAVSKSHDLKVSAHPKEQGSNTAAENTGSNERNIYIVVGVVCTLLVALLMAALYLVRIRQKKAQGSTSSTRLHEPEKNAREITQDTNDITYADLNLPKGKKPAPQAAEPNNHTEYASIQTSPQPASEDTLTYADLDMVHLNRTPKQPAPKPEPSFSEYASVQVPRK
Assay: flow cytometry, U-937 cells (endogenous V1)
Procedure: Antibody binding to human monocytic cell lines homozygous for the V1-allele (U-937) or the V2-allele (THP-1) of SIRPα is assessed. U-937 or THP-1 cells are blocked with donkey IgG and incubated on ice with increasing concentrations of antibodies for 60 minutes, washed and stained with AF647-conjugated donkey F(ab′)₂ anti-human IgG secondary reagent. Cells are washed, fixed, and analyzed by flow cytometry. Median fluorescent intensity is determined and used as a measure of antibody binding.
measured-metric: EC50 (nM)
Provide the reading as a plain figure in nM.

The following binders have reported results that may help.
binder	measured-metric	observed-value
Antibody D (antibody, human IgG1, kappa, L234A L235A, V domains shown) VH: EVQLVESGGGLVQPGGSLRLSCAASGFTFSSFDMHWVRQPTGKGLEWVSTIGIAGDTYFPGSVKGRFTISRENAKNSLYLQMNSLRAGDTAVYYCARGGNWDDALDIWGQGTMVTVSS VL: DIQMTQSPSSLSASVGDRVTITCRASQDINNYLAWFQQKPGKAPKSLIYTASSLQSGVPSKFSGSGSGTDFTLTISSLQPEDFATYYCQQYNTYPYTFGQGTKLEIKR	EC50	0.5
Anti-SIRPα antibody KWAR23 (antibody, V domains shown) VH: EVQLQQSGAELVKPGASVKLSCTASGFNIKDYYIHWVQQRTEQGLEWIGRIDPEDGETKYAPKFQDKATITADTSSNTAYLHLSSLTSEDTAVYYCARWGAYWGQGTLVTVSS VL: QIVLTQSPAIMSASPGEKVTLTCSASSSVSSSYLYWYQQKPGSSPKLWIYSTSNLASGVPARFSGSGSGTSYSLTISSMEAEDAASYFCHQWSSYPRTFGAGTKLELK	EC50	0.5
Antibody C (antibody, human IgG1, kappa, L234A L235A, V domains shown) VH: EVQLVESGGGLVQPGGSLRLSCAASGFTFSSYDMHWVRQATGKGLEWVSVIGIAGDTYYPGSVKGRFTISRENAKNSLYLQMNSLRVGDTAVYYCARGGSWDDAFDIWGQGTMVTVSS VL: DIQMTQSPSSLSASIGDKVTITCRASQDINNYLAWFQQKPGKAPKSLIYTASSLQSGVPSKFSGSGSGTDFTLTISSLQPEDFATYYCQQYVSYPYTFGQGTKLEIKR	EC50	0.6

Now examine the next entry.
Lookup result for Antibody B (antibody, human IgG1, kappa, L234A L235A, V domains shown) VH: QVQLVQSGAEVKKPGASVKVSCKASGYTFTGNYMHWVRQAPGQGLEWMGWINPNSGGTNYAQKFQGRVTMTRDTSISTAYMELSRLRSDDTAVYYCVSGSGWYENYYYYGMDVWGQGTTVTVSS VL: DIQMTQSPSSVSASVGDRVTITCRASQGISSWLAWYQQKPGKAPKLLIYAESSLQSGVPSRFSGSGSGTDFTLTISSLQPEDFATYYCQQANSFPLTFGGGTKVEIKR ; measured EC50: 21.1
